system: HEK-293T; test: Multiplex assay against HEK293T; type: toxicity, cell-based; details: human, 24 h, 10 µM, compound concentration 10 uM, replicate 1
Entries and their Population Mitochondria Different-Phenotype (%) values follow.
observation type: Population Mitochondria Different-Phenotype (%)

[
  {
    "compound": "Cc1ccc(C(C)(O)c2nc3ccccc3s2)c(C)c1 (stereo unspecified)",
    "target under test": "HEK-293T",
    "quantitative readout": 42
  },
  {
    "compound": "O=S(=O)(c1ccccc1)c1cnc2c(N3CCNCC3)cccc2c1 [INTEPIRDINE]",
    "target under test": "HEK-293T",
    "quantitative readout": 50
  },
  {
    "compound": "CC[C@H]1OC(=O)[C@H](C)[C@@H](O[C@H]2C[C@@](C)(OC)[C@@H](O)[C@H](C)O2)[C@H](C)[C@@H](O[C@@H]2O[C@H](C)C[C@H](N(C)C)[C@H]2O)[C@@]2(C)CC(C)=C(O2)[C@H](C)[C@@H](O)[C@]1(C)O",
    "target under test": "HEK-293T",
    "quantitative readout": 74
  },
  {
    "compound": "Cc1ccc(-c2ccc(F)cc2COc2ccc(CCC(=O)O)cc2)cc1",
    "target under test": "HEK-293T",
    "quantitative readout": 30
  },
  {
    "compound": "COc1cc(NC(=O)CCN2CCC(OC(=O)Nc3ccccc3-c3ccccc3)CC2)c(Cl)cc1CNC[C@H](O)c1ccc(O)c2[nH]c(=O)ccc12 [BATEFENTEROL]",
    "target under test": "HEK-293T",
    "quantitative readout": 100
  },
  {
    "compound": "Cc1ccc(F)cc1C(=O)Nc1ccc(C(=O)N2Cc3cccn3Cc3ccccc32)c(Cl)c1 [LIXIVAPTAN]",
    "target under test": "HEK-293T",
    "quantitative readout": 74
  }
]
